# half-life values compiled below
- method.description: Terminal half life in rat at 1 mg/kg, iv
- Assay type: ADME, organism-based
- Parameters: dose 1 mg/kg, route intravenous
- measurement.setup: in vivo, read-out: beta t1/2 (converted)
Give just the numeric value; h need not be written.

{"molecule": "CC(C)Cn1c2ccc(C3CCCCO3)cc2c2c3c(c4c(c21)CCc1nn(C)cc1-4)C(=O)NC3 (racemic)", "measured": 1.9}

Now turn to the next molecule.
Let me know recorded half-life for CCCCn1c2ccc(C3CCCCO3)cc2c2c3c(c4c(c21)CCc1nn(C)cc1-4)C(=O)NC3 (racemic) , thanks.
1.5

###

- method.description: Terminal half life in rat at 10 mg/kg, po
- Assay type: ADME, organism-based
- Set-up: dose 10 mg/kg, route oral
- measurement.setup: in vivo, read-out: beta t1/2 (converted)
quantity.name: half-life (h)
Give the value, in units of h, as a plain number.

{"compound": "CC(C)Cn1c2ccc(C3CCCCO3)cc2c2c3c(c4c(c21)CCc1nn(C)cc1-4)C(=O)NC3 (racemic)", "quantity.name": "half-life", "measured": 3.9}

Give the reported value of half-life for this record: CCCCn1c2ccc(C3CCCCO3)cc2c2c3c(c4c(c21)CCc1nn(C)cc1-4)C(=O)NC3 (racemic)
2.8

###

- method.description: Clearance in rat at 1 mg/kg, iv
- Type: ADME, organism-based
- Parameters: dose 1 mg/kg, route intravenous
- measurement.setup: in vivo
quantity.name: clearance (mL/min/kg)
Field format: number, assumed mL/min/kg, no unit text.

{"molecule": "CC(C)Cn1c2ccc(C3CCCCO3)cc2c2c3c(c4c(c21)CCc1nn(C)cc1-4)C(=O)NC3 (racemic)", "unit": "mL/min/kg", "clearance": 20}

With those in mind, consider the next molecule.
Read off the recorded clearance for CCCCn1c2ccc(C3CCCCO3)cc2c2c3c(c4c(c21)CCc1nn(C)cc1-4)C(=O)NC3 (racemic)
15

###

- System: Aorta
- method.description: Ex vivo antiangiogenic activity in rat aortic ring assessed as inhibition of VEGF-stimulated microvessel growth
- Assay type: functional, tissue-based
quantity.name: pEC50
Expect pEC50 as a plain number equal to -log10 of the molar concentration.

{"compound": "CCCCn1c2ccc(C3CCCCO3)cc2c2c3c(c4c(c21)CCc1nn(C)cc1-4)C(=O)NC3 (racemic)", "quantity.name": "pEC50", "measured": 8.92}

Report measured pEC50; entry is CC(C)Cn1c2ccc(C3CCCCO3)cc2c2c3c(c4c(c21)CCc1nn(C)cc1-4)C(=O)NC3 (racemic)
9.05

###

- method.description: AUC (0 to infinity) in rat at 1 mg/kg, iv
- Assay type: ADME, organism-based
- Design: time infinity, dose 1 mg/kg, route intravenous
- measurement.setup: plasma
quantity.name: AUC(0-inf) (ng·h/mL)
Respond with the bare value in ng·h/mL.

{"molecule": "CCCCn1c2ccc(C3CCCCO3)cc2c2c3c(c4c(c21)CCc1nn(C)cc1-4)C(=O)NC3 (racemic)", "measured": 1160}

With those in mind, consider the next molecule.
Tell us which AUC(0-inf) value is on record for CC(C)Cn1c2ccc(C3CCCCO3)cc2c2c3c(c4c(c21)CCc1nn(C)cc1-4)C(=O)NC3 (racemic)
862

###

- method.description: AUC (0 to infinity) in rat at 10 mg/kg, po
- Type: ADME, organism-based
- Design: time infinity, dose 10 mg/kg, route oral
- measurement.setup: plasma
quantity.name: AUC(0-inf)
Form entry: enter the amount, then its unit.

{"compound": "CC(C)Cn1c2ccc(C3CCCCO3)cc2c2c3c(c4c(c21)CCc1nn(C)cc1-4)C(=O)NC3 (racemic)", "measured": "1260 ng·h/mL"}

Determine from records and report AUC(0-inf) for CCCCn1c2ccc(C3CCCCO3)cc2c2c3c(c4c(c21)CCc1nn(C)cc1-4)C(=O)NC3 (racemic)
1890 ng·h/mL

###

- target.entity: Epidermal growth factor receptor (Homo sapiens, UniProt P00533)
- Sequence (P00533 whole entry): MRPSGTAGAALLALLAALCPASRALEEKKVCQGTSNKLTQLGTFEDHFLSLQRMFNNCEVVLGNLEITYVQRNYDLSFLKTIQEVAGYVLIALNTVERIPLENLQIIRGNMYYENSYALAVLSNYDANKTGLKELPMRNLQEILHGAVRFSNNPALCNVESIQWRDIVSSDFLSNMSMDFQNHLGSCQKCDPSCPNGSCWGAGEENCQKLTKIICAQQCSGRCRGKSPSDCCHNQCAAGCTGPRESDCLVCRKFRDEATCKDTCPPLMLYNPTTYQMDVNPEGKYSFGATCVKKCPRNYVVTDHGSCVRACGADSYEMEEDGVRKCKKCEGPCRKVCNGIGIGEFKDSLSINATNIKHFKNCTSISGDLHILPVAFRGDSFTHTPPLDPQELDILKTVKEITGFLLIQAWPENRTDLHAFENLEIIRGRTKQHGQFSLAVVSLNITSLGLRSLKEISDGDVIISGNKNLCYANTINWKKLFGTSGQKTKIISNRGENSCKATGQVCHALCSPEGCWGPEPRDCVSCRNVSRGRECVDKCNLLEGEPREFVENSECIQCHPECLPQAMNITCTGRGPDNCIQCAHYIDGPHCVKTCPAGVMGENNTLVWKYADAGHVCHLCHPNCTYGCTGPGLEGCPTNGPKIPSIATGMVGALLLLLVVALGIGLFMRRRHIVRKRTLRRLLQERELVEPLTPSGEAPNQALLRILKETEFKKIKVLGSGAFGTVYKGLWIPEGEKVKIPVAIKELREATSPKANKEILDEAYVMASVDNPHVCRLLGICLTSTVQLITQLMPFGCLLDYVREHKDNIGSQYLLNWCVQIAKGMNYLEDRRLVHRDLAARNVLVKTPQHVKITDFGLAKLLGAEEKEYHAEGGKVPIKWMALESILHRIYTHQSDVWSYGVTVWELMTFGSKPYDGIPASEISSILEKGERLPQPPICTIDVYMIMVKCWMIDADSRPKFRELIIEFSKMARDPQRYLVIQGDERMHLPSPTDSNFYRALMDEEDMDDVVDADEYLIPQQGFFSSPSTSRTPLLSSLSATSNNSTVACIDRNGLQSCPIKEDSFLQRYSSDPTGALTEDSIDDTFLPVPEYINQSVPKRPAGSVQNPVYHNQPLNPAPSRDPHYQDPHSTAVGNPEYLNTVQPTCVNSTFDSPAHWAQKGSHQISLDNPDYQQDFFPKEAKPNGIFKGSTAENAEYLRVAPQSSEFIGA
pIC50: −log10 of the molar value.
quantity.name: pIC50

Report its pIC50 with Epidermal growth factor receptor (Homo sapiens, UniProt P00533) as the test system: CC(C)Cn1c2ccc(C3CCCCO3)cc2c2c3c(c4c(c21)CCc1nn(C)cc1-4)C(=O)NC3 (racemic)
< 6.00

###

Parameter IC50: see the listing below.
- target.entity: Vascular endothelial growth factor receptor 2 (Homo sapiens)
- method.description: Inhibition of human recombinant VEGFR2 by time resolved fluorescence measurements
Give the quantity in nM, number only.

{"compound": "CCCCn1c2ccc(C3CCCCO3)cc2c2c3c(c4c(c21)CCc1nn(C)cc1-4)C(=O)NC3 (racemic)", "target.entity": "Vascular endothelial growth factor receptor 2 (Homo sapiens)", "unit": "nM", "IC50": 24}

Quote IC50 with test system Vascular endothelial growth factor receptor 2 (Homo sapiens) for CC(C)Cn1c2ccc(C3CCCCO3)cc2c2c3c(c4c(c21)CCc1nn(C)cc1-4)C(=O)NC3 (racemic)
11

###

- method.description: Plasma concentration in mouse SVR cells xenografted in nude mouse at 3 mg/kg, po bid administered after 4 days tumor implantation for 10 days measured after 2 hrs post dose
- Format: ADME, organism-based
- Set-up: dose 3 mg/kg, route oral
quantity.name: concentration at 2 h
The answer consists of two parts: a number and, after it, its unit.

{"compound": "CC(C)Cn1c2ccc(C3CCCCO3)cc2c2c3c(c4c(c21)CCc1nn(C)cc1-4)C(=O)NC3 (racemic)", "concentration at 2 h": "0.95 µM"}

Here's the next entry for you.
Tell us which concentration at 2 h value is on record for CCCCn1c2ccc(C3CCCCO3)cc2c2c3c(c4c(c21)CCc1nn(C)cc1-4)C(=O)NC3 (racemic)
0.9 µM

###

Readings of pIC50 for the listed compounds
- target.entity: Angiopoietin-1 receptor (Homo sapiens, UniProt Q02763)
- Sequence (Q02763 whole entry): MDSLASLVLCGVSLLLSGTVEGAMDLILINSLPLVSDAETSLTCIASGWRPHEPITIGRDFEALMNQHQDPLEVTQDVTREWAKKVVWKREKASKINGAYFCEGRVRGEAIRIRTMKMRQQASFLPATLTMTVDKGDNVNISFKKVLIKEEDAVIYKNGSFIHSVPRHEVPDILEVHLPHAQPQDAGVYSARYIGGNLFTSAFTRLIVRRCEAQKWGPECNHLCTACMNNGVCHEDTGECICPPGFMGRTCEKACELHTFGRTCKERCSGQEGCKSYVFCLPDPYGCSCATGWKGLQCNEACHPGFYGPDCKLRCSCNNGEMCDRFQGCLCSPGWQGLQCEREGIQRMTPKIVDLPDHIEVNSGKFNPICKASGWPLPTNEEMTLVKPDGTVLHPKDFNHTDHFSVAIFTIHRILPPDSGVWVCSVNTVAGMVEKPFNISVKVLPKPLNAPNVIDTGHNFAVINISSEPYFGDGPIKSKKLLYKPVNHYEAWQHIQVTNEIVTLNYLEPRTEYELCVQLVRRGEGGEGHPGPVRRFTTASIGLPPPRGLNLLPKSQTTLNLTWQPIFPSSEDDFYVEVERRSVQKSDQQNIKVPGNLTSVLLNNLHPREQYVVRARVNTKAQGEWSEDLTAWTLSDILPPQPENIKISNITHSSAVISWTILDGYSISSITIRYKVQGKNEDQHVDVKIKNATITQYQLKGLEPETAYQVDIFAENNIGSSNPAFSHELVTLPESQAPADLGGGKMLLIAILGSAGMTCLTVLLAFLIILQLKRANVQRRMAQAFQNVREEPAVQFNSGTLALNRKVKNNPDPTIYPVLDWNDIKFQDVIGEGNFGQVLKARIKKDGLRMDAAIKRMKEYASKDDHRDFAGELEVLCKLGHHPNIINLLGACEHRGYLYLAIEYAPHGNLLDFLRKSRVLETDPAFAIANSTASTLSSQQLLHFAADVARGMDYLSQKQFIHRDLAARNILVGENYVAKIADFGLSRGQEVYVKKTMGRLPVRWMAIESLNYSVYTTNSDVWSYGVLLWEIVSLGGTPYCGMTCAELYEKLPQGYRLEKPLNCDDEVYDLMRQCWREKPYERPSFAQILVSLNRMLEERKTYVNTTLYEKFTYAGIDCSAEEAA
- method.description: Inhibition of human recombinant TIE-2 by time resolved fluorescence measurements
Friendly reminder that pIC50 comes from taking -log10 of the concentration in mol/L.

Report pIC50 under test system Angiopoietin-1 receptor (Homo sapiens, UniProt Q02763) for CC(C)Cn1c2ccc(C3CCCCO3)cc2c2c3c(c4c(c21)CCc1nn(C)cc1-4)C(=O)NC3 (racemic) .
8.52

# assay system Angiopoietin-1 receptor (Homo sapiens, UniProt Q02763): give pIC50 of CCCCn1c2ccc(C3CCCCO3)cc2c2c3c(c4c(c21)CCc1nn(C)cc1-4)C(=O)NC3 (racemic)
8.00

###

- target.entity: Vascular endothelial growth factor receptor 3 (Homo sapiens, UniProt P35916)
- Sequence (P35916 whole entry): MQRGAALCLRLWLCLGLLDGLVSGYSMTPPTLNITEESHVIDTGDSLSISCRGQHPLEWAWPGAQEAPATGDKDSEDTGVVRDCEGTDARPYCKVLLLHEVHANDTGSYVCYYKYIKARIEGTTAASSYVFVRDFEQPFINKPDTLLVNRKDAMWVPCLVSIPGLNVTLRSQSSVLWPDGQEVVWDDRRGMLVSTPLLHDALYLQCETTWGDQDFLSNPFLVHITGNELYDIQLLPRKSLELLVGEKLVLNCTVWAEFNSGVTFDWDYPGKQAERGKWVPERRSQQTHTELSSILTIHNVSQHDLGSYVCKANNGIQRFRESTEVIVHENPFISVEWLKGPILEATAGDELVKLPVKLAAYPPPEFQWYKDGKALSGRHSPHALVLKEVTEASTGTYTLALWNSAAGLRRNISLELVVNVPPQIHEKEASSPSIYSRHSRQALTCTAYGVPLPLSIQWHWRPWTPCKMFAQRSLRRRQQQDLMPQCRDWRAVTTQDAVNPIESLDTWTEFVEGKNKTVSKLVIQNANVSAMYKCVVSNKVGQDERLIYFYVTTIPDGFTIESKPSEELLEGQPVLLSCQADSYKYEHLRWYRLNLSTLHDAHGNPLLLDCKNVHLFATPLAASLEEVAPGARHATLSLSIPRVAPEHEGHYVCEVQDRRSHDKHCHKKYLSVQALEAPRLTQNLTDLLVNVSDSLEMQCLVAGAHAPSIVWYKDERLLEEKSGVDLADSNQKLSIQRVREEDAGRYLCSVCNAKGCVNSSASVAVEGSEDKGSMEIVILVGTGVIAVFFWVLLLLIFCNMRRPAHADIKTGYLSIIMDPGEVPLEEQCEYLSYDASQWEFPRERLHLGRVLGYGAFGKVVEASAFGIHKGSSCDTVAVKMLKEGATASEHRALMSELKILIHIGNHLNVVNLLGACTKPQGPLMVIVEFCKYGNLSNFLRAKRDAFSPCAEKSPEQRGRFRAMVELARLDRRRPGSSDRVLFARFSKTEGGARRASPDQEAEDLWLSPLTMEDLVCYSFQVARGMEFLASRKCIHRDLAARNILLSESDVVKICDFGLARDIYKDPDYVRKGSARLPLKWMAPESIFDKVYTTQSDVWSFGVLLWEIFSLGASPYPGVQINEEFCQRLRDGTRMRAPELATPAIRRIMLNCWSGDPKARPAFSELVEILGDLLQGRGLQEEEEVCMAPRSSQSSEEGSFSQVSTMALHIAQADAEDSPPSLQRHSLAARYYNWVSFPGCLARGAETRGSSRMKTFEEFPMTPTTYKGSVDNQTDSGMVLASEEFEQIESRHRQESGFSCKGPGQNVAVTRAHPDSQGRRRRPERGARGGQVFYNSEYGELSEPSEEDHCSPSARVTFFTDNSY
quantity.name: pIC50
Hey, just a heads up that pIC50 is the negative log base 10 of the concentration in molar.

# lookup: Vascular endothelial growth factor receptor 3 (Homo sapiens, UniProt P35916) pIC50, key = CC(C)Cn1c2ccc(C3CCCCO3)cc2c2c3c(c4c(c21)CCc1nn(C)cc1-4)C(=O)NC3 (racemic)
8.05

###

The following compounds are shown together with reported IC50 values.
- target.entity: Vascular endothelial growth factor receptor 2 (Homo sapiens, UniProt P35968)
- Sequence (P35968 whole entry): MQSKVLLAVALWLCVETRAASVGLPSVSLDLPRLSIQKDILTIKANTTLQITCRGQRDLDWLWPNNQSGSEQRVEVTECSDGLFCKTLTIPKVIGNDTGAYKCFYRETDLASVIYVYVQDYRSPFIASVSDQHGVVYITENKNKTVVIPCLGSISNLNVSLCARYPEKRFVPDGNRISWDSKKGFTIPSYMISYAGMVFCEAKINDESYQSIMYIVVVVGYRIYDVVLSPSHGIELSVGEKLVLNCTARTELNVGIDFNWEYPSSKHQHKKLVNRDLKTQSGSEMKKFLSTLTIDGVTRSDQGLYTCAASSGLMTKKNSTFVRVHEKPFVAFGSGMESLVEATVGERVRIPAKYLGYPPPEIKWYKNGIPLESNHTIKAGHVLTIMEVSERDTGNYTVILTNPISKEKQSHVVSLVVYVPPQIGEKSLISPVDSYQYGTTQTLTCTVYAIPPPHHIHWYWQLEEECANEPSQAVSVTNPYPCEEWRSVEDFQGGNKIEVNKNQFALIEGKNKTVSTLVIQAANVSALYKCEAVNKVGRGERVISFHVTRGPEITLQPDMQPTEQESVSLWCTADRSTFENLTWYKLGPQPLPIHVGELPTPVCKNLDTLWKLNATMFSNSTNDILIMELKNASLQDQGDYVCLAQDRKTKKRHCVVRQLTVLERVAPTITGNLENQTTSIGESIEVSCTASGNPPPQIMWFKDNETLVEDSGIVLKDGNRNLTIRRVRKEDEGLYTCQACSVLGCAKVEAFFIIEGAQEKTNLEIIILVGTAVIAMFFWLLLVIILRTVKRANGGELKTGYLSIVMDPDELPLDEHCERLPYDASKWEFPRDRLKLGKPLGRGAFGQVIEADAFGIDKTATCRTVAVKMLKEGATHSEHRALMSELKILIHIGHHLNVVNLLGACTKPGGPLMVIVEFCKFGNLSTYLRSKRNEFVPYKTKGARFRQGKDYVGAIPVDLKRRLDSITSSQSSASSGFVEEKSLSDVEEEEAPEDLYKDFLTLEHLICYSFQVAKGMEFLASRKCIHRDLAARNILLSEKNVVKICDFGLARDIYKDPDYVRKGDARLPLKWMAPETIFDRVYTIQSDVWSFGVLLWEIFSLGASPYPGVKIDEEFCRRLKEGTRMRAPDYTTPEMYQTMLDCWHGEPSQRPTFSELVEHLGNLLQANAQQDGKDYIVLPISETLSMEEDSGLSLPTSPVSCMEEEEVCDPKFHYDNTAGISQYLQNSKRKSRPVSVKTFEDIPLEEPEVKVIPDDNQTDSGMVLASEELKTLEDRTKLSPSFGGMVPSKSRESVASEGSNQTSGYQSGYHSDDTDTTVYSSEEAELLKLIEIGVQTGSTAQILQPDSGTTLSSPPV
- method.description: Inhibition of VEGF-stimulated VEGFR2 autophosphorylation in HUVEC
Only the number, expressed in nM, is required.

{"compound": "CC(C)Cn1c2ccc(C3CCCCO3)cc2c2c3c(c4c(c21)CCc1nn(C)cc1-4)C(=O)NC3 (racemic)", "target.entity": "Vascular endothelial growth factor receptor 2 (Homo sapiens, UniProt P35968)", "IC50 [nM]": 10}

Next compound, please.
Report IC50, nothing else, for this compound: CCCCn1c2ccc(C3CCCCO3)cc2c2c3c(c4c(c21)CCc1nn(C)cc1-4)C(=O)NC3 (racemic)
10

###

- method.description: Plasma concentration in mouse SVR cells xenografted in nude mouse at 1 mg/kg, po bid administered after 4 days tumor implantation for 10 days measured after 2 hrs post dose
- Assay type: ADME, organism-based
- Set-up: dose 1 mg/kg, route oral
quantity.name: concentration at 2 h (nM)
Could you give me the number in nM? Just the number is fine.

{"molecule": "CC(C)Cn1c2ccc(C3CCCCO3)cc2c2c3c(c4c(c21)CCc1nn(C)cc1-4)C(=O)NC3 (racemic)", "unit": "nM", "concentration at 2 h": 321}

Shift focus to the following entry.
Return concentration at 2 h (reported value) for this molecule: CCCCn1c2ccc(C3CCCCO3)cc2c2c3c(c4c(c21)CCc1nn(C)cc1-4)C(=O)NC3 (racemic)
158

Hey, just so you know, these numbers are from ChEMBL document CHEMBL1155474.
